Molecular target: AMP-activated protein kinase, AMPK (Homo sapiens) (UniProt P54646+O43741+P54619+Q9UGJ0+Q9Y478+Q13131+Q9UGI9)
Assay: AMP-dependent Kinase enzyme assay. An in vitro enzyme assay that detects ADP turnover that is directly proportional to AMPK activity. This uses naive AMPK that is activated during the assay with MK-8722
Format: functional
Parameters: scale not given: direction of the effect not stated beside the values
Settings: 30 µM
reported-metric: Percent Effect (%)
One number for each entry, in %.

Solved cases (2 shown):
compound | Percent Effect (%)
CN(Cc1noc(C2CC2)n1)C1CCN(CCn2cccn2)C1 (centres undefined) | 5.76
O=C(NCC(=O)N1CCN(c2ccccc2)CC1)c1sccc1C1CC1 | -5.62

Parameters: items (list). Returns: Percent Effect for each item.
1. CN(C)c1ccc(C(=O)Nc2ccn(CCc3ccncc3)n2)cc1
2. CC(=O)N1CCN(C(=O)NC(C)Cn2ccnc2)CC1 (centres undefined)
3. Cc1nnc2n1CCN(C(=O)C(C)Oc1ccc(C#N)cc1)C2 (centres undefined)
4. CC(C)c1nn(C)cc1CNCc1cccnc1N(C)C
5. CCCn1ncc(C(=O)N2CCCC(OCc3ccccn3)C2)c1C (centres undefined)
6. O=C(O)[C@H]1C[C@H](C(=O)NCc2ccncc2)CN(CCC(F)(F)F)C1

Marked response:
1: 10.3; 2: -4.12; 3: 13; 4: 0.312; 5: -1.18; 6: -2.07

Exam item: Item Cc1ncc(C(=O)N2CCOC(C(=O)N3CCCCC3)C2)c(C)n1 (centres undefined) : provide Percent Effect
Marked response: -4.59

###

Species: Homo sapiens
Assay: To identify inhibition of the IFN signalling (Jak-Stat) pathway via expression of an eGFP reporter gene under the control of an IFN-stimulated response element (ISRE) containing MxA promoter.
Type: functional
Parameters: scale not given: direction of the effect not stated beside the values
Conditions: 30 µM
reported-metric: Percent Effect
Dear colleague, please send the value followed by its unit.

Dear reader, for each entry below, please note its Percent Effect.
1. CCNC(=O)[C@@H]1C[C@@H](NC(=O)c2cccnc2O)CN1Cc1ccsc1
2. OC(CN1CCOCC1)CN1CCc2c(ncn2C2CC2)C1 (stereo unspecified)
3. CC(CC#N)NC(=O)c1cc(Br)c2c(c1)OCCO2 (stereo unspecified)
4. Cc1cccc(-c2noc(CN3CCCC3Cn3cccn3)n2)c1 (stereo unspecified)

Marked response:
2.29%
17.9%
7.62%
35.3%

###

I'd be grateful if you could share measured Percent Effect for these entries.
Target: Arginase-2, mitochondrial (Homo sapiens) (UniProt P78540)
Sequence (P78540 whole entry): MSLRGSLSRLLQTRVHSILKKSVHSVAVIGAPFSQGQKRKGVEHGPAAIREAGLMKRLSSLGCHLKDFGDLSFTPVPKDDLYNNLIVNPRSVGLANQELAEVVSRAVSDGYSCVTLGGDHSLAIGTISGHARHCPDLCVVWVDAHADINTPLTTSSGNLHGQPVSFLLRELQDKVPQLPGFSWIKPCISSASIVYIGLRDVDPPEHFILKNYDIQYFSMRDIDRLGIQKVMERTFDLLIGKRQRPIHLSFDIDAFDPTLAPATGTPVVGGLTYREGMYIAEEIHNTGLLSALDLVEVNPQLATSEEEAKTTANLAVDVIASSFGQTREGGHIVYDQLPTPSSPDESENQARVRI
Assay: in vitro enzyme assay to detect the production of urea directly proportional to the activity of Arginase II; also: in the data most compounds retested in dose-response had high values
Type: functional
Design: scale not given: direction of the effect not stated beside the values
Settings: 30 µM
Answer format reminder: number followed by unit.

Answered cases to consult:
compound | Percent Effect
CCC(C(=O)NCc1ccccn1)N(c1cccc(C)c1)S(C)(=O)=O (stereo not drawn) | 9.19%
COCc1csc(NC(=O)N2CCC(Cc3cnn(C)c3)C2)n1 (stereo not drawn) | 2.7%

Next compound, Percent Effect to be filled in.
Exam item: Tell us which Percent Effect value is on record for COc1ccccc1Oc1ncccc1CNC(=O)C(C)CN (stereo not drawn)
Marked response: 11.3%

###

Would you mind telling me the reported Percent Effect of each entry?
Target: Tyrosyl-tRNA synthetase, putative (Trypanosoma cruzi (strain CL Brener)) (UniProt Q4DSP6)
Sequence (Q4DSP6 as listed by the source): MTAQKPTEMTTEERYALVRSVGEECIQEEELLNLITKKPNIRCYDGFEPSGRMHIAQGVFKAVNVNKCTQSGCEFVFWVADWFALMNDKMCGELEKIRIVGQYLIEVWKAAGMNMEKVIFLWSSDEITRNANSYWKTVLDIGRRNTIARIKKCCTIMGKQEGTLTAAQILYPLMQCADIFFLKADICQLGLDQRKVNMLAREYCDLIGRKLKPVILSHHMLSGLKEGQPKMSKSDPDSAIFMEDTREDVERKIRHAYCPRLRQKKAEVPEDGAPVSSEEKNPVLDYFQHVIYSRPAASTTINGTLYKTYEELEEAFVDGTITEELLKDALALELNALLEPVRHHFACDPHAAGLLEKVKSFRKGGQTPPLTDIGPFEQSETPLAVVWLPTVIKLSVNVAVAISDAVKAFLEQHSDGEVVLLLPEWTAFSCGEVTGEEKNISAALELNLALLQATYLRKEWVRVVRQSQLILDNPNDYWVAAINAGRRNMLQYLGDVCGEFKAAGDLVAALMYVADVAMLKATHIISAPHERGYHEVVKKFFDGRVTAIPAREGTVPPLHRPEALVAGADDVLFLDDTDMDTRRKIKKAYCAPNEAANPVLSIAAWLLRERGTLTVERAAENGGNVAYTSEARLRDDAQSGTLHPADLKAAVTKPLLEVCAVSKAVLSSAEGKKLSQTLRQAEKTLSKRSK
Test: Trypanosoma cruzi tyrosyl tRNA synthetase (TcYRS) _High Tyrosine SOP; also: in the data most compounds retested in dose-response had high values
Type: functional
Parameters: scale not given: direction of the effect not stated beside the values
Conditions: 30 µM
Express the reported value numerically, then name its unit.

// solved cases for Percent Effect follow
compound | Percent Effect
CC(C)(C)n1ncc2c1NC(=O)CC2c1ccsc1 (stereo not given) | 4.79%
Cc1cnn(C2CCCN(C(=O)c3sccc3-n3cnnn3)C2)c1 (stereo not given) | 5.26%
CN(Cc1noc(C2CC2)n1)C1CCN(Cc2ccncc2)C1 (stereo not given) | 1.44%
CCc1nc(C2CCCN2C(=O)CCCn2cccn2)no1 (stereo not given) | 1.96%
CCc1ncnc2c1CCN(Cc1ccc(OC)cc1)CC2 | 1.58%
CCCC(C)C(=O)N1CCC(n2cccc2C(=O)OC)CC1 (stereo not given) | 2.94%
CC(C)(C)n1ncc2c1NC(=O)CC2c1ccc(OCC(N)=O)cc1 (stereo not given) | 9.04%
O=C(CC1CCCC1)N1C[C@@H]2CCN(c3cccnc3)C[C@@H]2C1 | 2.9%

Could you report Percent Effect for every entry in the following list?
1. Cn1ccc(CN2CCC(NC(=O)NC3CCCCC3)CC2)cc1=O
2. COc1cccc(CN2CCCC3(CCN(C(=O)[C@H]4CCCO4)C3)C2)c1 (stereo not given in full)
3. COc1cccc(-n2nnc(C(=O)N3CCNC(=O)C3)c2C)c1
4. Cc1cnn(CC2CCCCN2CCn2cncn2)c1 (stereo not given)
5. COc1cc(C)nc(N2CCN(C(=O)COCC(F)(F)F)CC2)n1
6. Cc1ccc(OCC(O)CN2CCC(Cn3cccn3)CC2)cc1 (stereo not given)

Marked response:
1. 4.31%
2. 12.6%
3. 5.26%
4. 5.79%
5. 4.31%
6. 10.8%

Go through the list and state Percent Effect for each entry.
1. COCC(C)NC(=O)c1cc(Br)c2c(c1)OCCO2 (stereo not given)
2. O=C(c1ccco1)N1CCC2(CCC(=O)N2Cc2cccc(F)c2)CC1

Marked response:
-2.63%
5.8%

Quick one: give me Percent Effect for each item below, same order please.
1. Cc1cc(CN(C)C(=O)c2ccnc(N(C)C)c2)no1
2. CCOCC1CC2(CCN(Cc3ccccn3)CC2)CO1 (stereo not given)
3. CCc1nnc(CN2CCCC(c3cc(C(F)(F)F)[nH]n3)C2)o1 (stereo not given)
4. O=C(NCc1cc(O)ncn1)C1COc2ccccc2C1 (stereo not given)

Marked response:
3.68%
2.63%
1.58%
5.85%

Field: Percent Effect. Fill in for each record below.
1. Cc1nc(C)n(CC2CCCN2Cc2nc3ccccc3n2C)n1 (stereo not given)
2. Cc1cc(C(=O)NC2CCc3nc(C)cn3C2)[nH]n1 (stereo not given)
3. CCOC1CCCN(C(=O)c2sccc2-n2cnnn2)C1 (stereo not given)
4. NC(=O)C1(CCCc2cccnc2)CCCN(c2ncccn2)C1 (stereo not given)
5. CN(C(=O)CN1CCOC(Cn2cccn2)C1)c1nccs1 (stereo not given)
6. CC(C)c1cc(N2CCN(c3ccc(O)cc3)CC2)n2nccc2n1
7. O=C(NCCc1cccnc1)N1CCCC1c1ccsc1 (stereo not given)
8. CCS(=O)(=O)N1CCC2(CC1)CN(Cc1ccccn1)C(=O)CO2

Marked response:
["1.58%", "3.68%", "8.13%", "4.23%", "3.92%", "27.1%", "5.26%", "-1.58%"]

Count: 7. Required value per item: Percent Effect.
1. CN(C)CCCn1ccnc1C1CCCN(c2cc(N)ncn2)C1 (stereo not given)
2. O=C(c1cc(Cl)c2c(c1)OCCO2)N1CCCC(n2cncn2)C1 (stereo not given)
3. CNC(=O)c1ccc(CN(C(=O)c2scnc2C)C2CC2)cc1
4. Cc1n[nH]c(C)c1C1COCCN1C(=O)c1ccccc1 (stereo not given)
5. CNc1snc(C)c1C(=O)N1CCCC(n2ccnc2C(C)C)C1 (stereo not given)
6. COc1ncccc1CNC(=O)c1cccnc1O
7. CC(C)C(=O)N1CCC2(CCCN(CCOc3ccccc3)C2)C1 (stereo not given)

Marked response:
1. 7.98%
2. -0.526%
3. -3.35%
4. -1.44%
5. 1.58%
6. 11%
7. 2.9%

###

Target: Tyrosyl-tRNA synthetase, putative (Trypanosoma cruzi (strain CL Brener)) (UniProt Q4DSP6)
Assay: Trypanosoma cruzi tyrosyl tRNA synthetase (TcYRS) SOP
Type: functional
Parameters: scale not given: direction of the effect not stated beside the values
Conditions: 30 µM
Decision: Percent Effect beneath 10% gives rule met; Percent Effect meeting or exceeding 10% gives rule not met.

Before answering, review these 5 worked examples.
compound | cat
CCn1cc2c(n1)C(COC)CN(C(=O)COc1ccccc1C)C2 (stereo not drawn) | rule met
c1ccc(-c2nc(CN3CCc4c(ncn4C4CC4)C3)cs2)cc1 | rule not met
CC(C)c1noc(CCC(=O)NCC2CCS(=O)(=O)C2)n1 (stereo not drawn) | rule not met
CCN1CCC2(C=C(C(=O)NC3CC3)c3ccccc32)CC1 | rule met
Nc1nc2nc(C3CCCN(C(=O)c4cscn4)C3)ccc2s1 (stereo not drawn) | rule met

Exam item: # check: Percent Effect < 10% for CCc1nnc(CN2CCCC(c3cc(C(F)(F)F)[nH]n3)C2)o1 (stereo not drawn)
Marked response: rule met

Exam item: A record lists CN(C)C(=O)N1C[C@H]2CCC[C@@]2(COc2ccccn2)C1 . Is its Percent Effect below 10%?
Marked response: rule met

Exam item: Percent Effect under 10%? Item: CCn1ccnc1CN1CCN(CC(O)c2ccccc2)CC1 (stereo not drawn)
Marked response: rule met

Exam item: Is it true that Percent Effect reported for Cc1occc1CNC(=O)N(CCCO)C1CCc2ccccc21 (stereo not drawn) is less than 10%?
Marked response: rule met

Exam item: Please indicate whether the reported Percent Effect of Cn1ccc(C(=O)NCc2cccc(NC(=O)C3CCC3)c2)cc1=O is strictly below 10%.
Marked response: rule not met

Exam item: Below 10% on Percent Effect? Entry COC(=O)N1C[C@H]2CC[C@@H]1CN(Cc1cscn1)C2
Marked response: rule not met

Exam item: Answer whether the compound Cc1cnc(N2CCC3(CCN(CC4CC4)C3=O)CC2)nc1 has Percent Effect strictly less than 10%
Marked response: rule not met

Exam item: Please check: Percent Effect for Cc1cccnc1CNCC1(O)CCCN(Cc2ccc(F)cc2)C1=O (stereo not drawn) , strictly under 10% or not?
Marked response: rule not met

Exam item: I'd appreciate it if you could check whether COc1ccc(CN2CCC3(CC(Nc4ccncn4)C3)C2)c(OC)c1 (stereo not drawn) has Percent Effect smaller than 10%.
Marked response: rule met

Origin of the recorded values: ChEMBL document CHEMBL3988442
